# tgt: human mGluR5 (Homo sapiens)
# experiment-description: Cell-based functional Ca2+ mobilization assay, potentiation of glutamate EC20 response (H10H cell-line)
# applied-conditions: H10H cell-line expressing recombinant human mGluR5; potentiation in presence of glutamate EC20
// reported EC50 for each item listed
Expressed in µM, but write only the number.

{"compound": "O=C(c1ncc(F)cc1F)N1CCc2nc(COc3ccccc3)oc2C1", "unit-of-measure": "µM", "endpoint-result": 4.07}

Item N#Cc1cccc(C(=O)N2CCc3nc(COc4ccccc4)oc3C2)c1 ; assay system human mGluR5 (Homo sapiens); EC50 reported as 0.295

Item N#Cc1ccc(C(=O)N2CCc3nc(COc4ccccc4)oc3C2)cc1 ; assay system human mGluR5 (Homo sapiens); EC50 reported as 3.09

Item O=C(c1ccc(F)cc1)N1CCc2nc(COc3cccc(F)c3)oc2C1 ; assay system human mGluR5 (Homo sapiens); EC50 reported as 0.219

###

# tgt: UniProt:P41594
# experiment-description: Cell-based functional Ca2+ mobilization assay, potentiation of glutamate EC20 response (H10H cell-line)
# applied-conditions: H10H cell-line expressing recombinant human mGluR5; in presence of glutamate EC20; normalized to maximal glutamate response
reported-endpoint: Emax
Include the unit after the number when you answer.

Below: 3 compounds and their reported Emax.
{"compound": "N#Cc1ccc(C(=O)N2CCc3nc(COc4ccccc4)oc3C2)cc1", "endpoint-result": "58%"}
{"compound": "O=C(COc1ccccc1)N1CCc2nc(COc3ccccc3)oc2C1", "endpoint-result": "60%"}
{"compound": "O=C(c1ccc(F)cc1)N1CCc2nc(COc3ccc(F)c(F)c3)oc2C1", "endpoint-result": "60%"}

Then there is this compound:
Memo: O=C(c1ccncc1)N1CCc2nc(COc3ccccc3)oc2C1 , reported Emax: 69%

###

// reported melting point for each item listed
Expressed in °C, but write only the number.

{"compound": "Cc1ccc(OCc2nc3c(o2)CN(C(=O)c2ccc(F)cc2)CC3)cc1 [Example B70]", "melting point / °C": 137.2}
{"compound": "O=C(c1cc(F)cc(F)c1)N1CCc2nc(COc3cccc(F)c3)oc2C1 [Example B30]", "melting point / °C": 70}
{"compound": "Cn1cccc1C(=O)N1CCc2nc(COc3ccccc3)oc2C1 [Example B84]", "melting point / °C": 78.5}
{"compound": "O=C(c1cnn2ccccc12)N1CCc2nc(COc3ccccc3)oc2C1 [Example B95]", "melting point / °C": 130.8}
{"compound": "O=C(c1ccc2c(c1)OCO2)N1CCc2nc(COc3ccccc3)oc2C1 [Example B76]", "melting point / °C": 121.3}

Memo: O=C(c1ncc(F)cc1F)N1CCc2nc(COc3cccc(F)c3)oc2C1 [Example B101] , reported melting point: 109.8

Memo: O=C(N1CCc2nc(COc3ccccc3)oc2C1)C(F)(F)F [Example B34] , reported melting point: 71.8

###

// reported pEC50 for each item listed
# tgt: human mGluR5 (Homo sapiens, UniProt P41594)
# Sequence (P41594 21-1180 isoform P41594-2 limits assumed): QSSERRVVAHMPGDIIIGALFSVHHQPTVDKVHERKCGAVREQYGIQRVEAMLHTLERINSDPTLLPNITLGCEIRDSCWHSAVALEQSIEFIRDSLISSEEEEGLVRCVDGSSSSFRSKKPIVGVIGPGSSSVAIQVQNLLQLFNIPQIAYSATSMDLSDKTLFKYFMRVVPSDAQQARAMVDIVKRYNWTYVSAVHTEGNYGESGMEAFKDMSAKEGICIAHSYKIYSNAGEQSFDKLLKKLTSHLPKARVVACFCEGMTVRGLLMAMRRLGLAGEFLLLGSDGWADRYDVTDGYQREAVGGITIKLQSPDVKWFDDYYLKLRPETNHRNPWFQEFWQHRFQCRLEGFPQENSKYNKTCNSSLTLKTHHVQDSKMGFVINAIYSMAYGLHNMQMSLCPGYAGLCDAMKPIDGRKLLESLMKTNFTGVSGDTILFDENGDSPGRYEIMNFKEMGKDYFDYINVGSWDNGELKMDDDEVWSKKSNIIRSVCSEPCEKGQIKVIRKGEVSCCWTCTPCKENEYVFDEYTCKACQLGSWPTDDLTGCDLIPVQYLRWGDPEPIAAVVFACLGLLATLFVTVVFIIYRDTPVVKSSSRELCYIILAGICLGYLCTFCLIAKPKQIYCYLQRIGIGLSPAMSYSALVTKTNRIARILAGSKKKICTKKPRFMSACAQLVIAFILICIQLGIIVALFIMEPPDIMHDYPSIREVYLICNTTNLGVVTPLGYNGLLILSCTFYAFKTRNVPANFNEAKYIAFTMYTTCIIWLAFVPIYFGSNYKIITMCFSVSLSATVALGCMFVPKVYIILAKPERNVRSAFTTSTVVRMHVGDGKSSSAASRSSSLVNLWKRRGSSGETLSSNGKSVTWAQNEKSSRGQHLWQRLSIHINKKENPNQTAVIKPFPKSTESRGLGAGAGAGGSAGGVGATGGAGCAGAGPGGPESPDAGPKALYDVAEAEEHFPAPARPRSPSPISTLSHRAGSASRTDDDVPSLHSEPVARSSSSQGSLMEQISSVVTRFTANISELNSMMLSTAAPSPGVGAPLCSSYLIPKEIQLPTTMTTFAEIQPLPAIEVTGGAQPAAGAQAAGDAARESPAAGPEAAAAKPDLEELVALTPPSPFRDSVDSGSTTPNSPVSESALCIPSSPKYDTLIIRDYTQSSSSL
# experiment-description: Cell-based functional Ca2+ mobilization assay, potentiation of glutamate EC20 response (H10H cell-line)
# applied-conditions: H10H cell-line expressing recombinant human mGluR5; potentiation in presence of glutamate EC20
Scale: negative log10 of molar concentration, which is what pEC50 denotes.

Below: 10 molecules and their reported pEC50.
{"molecule": "O=C(c1ccccc1F)N1CCc2nc(COc3ccccc3)sc2C1", "pEC50": 6.06}
{"molecule": "O=C(c1ccc(F)cc1)N1CCc2nc(COc3ccccc3)oc2CC1", "pEC50": 5.47}
{"molecule": "O=C(c1n[nH]c2ccccc12)N1CCc2nc(COc3ccccc3)oc2C1", "pEC50": 6.41}
{"molecule": "Cc1oncc1C(=O)N1CCc2nc(COc3ccccc3)oc2C1", "pEC50": 6.48}
{"molecule": "O=C(c1cc(F)cc(F)c1)N1CCc2nc(COc3cccc(F)c3)oc2C1", "pEC50": 6.83}
{"molecule": "O=C(c1ccccc1F)N1CCc2nc(COc3ccccc3)oc2C1", "pEC50": 6.31}
{"molecule": "O=C(c1cc(F)cc(F)c1)N1CCc2nc(COc3ccccc3)oc2C1", "pEC50": 6.88}
{"molecule": "CC(Oc1ccccc1)C(=O)N1CCc2nc(COc3ccccc3)oc2C1 (stereo not shown)", "pEC50": 5.72}
{"molecule": "O=C(c1cccc(F)c1)N1CCc2nc(COc3ccccc3)oc2C1", "pEC50": 6.95}
{"molecule": "N#Cc1cccc(OCc2nc3c(o2)CN(C(=O)c2ccc(F)cc2)CC3)c1", "pEC50": 5.90}

Item O=C(C1CC1)N1CCc2nc(COc3ccccc3)oc2C1 ; assay system human mGluR5 (Homo sapiens, UniProt P41594); pEC50 reported as 5.52

Item O=C(c1ccc(F)cc1)N1CCc2nc(COc3ccccc3)oc2C1 ; assay system human mGluR5 (Homo sapiens, UniProt P41594); pEC50 reported as 6.42
